Documented melting point across a set of molecules

Some solved cases for reference:
Cc1c(-c2cc(C(=O)O)c3cc(Br)ccc3n2)nnn1-c1ccc(Cl)cc1; > 300 °C
COc1ccc(-n2nnc(-c3cc(C(=O)O)c4ccccc4n3)c2C)cc1; 222 to 224 °C
Cc1c(-c2cc(C(=O)O)c3cc(Br)ccc3n2)nnn1-c1cccc(Br)c1; 299 to 300 °C
Cc1c(-c2cc(C(=O)O)c3cc(Cl)ccc3n2)nnn1-c1ccc(F)cc1; 298 to 299 °C

Please turn your attention to the following entry.
Task: Please give the documented melting point of Cc1c(-c2cc(C(=O)O)c3cc(Cl)ccc3n2)nnn1-c1ccc([N+](=O)[O-])cc1
Output: 235 to 237 °C

====

Test system: L929 cells
Assay: Cytotoxicity, MTT protocol (ISO 10993-5:2009(E))
Type: cell-based
Settings: ratio to MIC against M. tuberculosis
Documented IC50-L929/MIC Mtb (cytotoxicity / discriminatory index) across a set of molecules
Answer with the value's number alone.

Some solved cases for reference:
COc1ccc(-n2nnc(-c3cc(C(=O)O)c4cc(Br)ccc4n3)c2C)cc1; 5
COc1ccc(-n2nnc(-c3cc(C(=O)O)c4cc(Cl)ccc4n3)c2C)cc1; 10
Cc1c(-c2cc(C(=O)O)c3cc(Cl)ccc3n2)nnn1-c1cccc(Br)c1; 13

Task: Please give the documented IC50-L929/MIC Mtb (cytotoxicity / discriminatory index) of Cc1c(-c2cc(C(=O)O)c3cc(Br)ccc3n2)nnn1-c1cccc(Cl)c1
Output: 13

Task: Please give the documented IC50-L929/MIC Mtb (cytotoxicity / discriminatory index) of Cc1c(-c2cc(C(=O)O)c3ccccc3n2)nnn1-c1ccc(Br)cc1
Output: 20

====

Documented melting point across a set of molecules

Some solved cases for reference:
Cc1c(-c2cc(C(=O)O)c3ccccc3n2)nnn1-c1ccc(F)cc1; 290 to 291 °C
Cc1c(-c2cc(C(=O)O)c3ccccc3n2)nnn1-c1ccc(Br)cc1; 228 to 229 °C
COc1ccc(-n2nnc(-c3cc(C(=O)O)c4cc(Cl)ccc4n3)c2C)cc1; 287 to 289 °C
Cc1c(-c2cc(C(=O)O)c3cc(Br)ccc3n2)nnn1-c1cccc(Cl)c1; > 300 °C

Please turn your attention to the following entry.
Task: Please give the documented melting point of COc1ccc(-n2nnc(-c3cc(C(=O)O)c4cc(Br)ccc4n3)c2C)cc1
Output: 294 to 295 °C

====

Tested on: L929 cells
Experiment: Cytotoxicity, MTT protocol (ISO 10993-5:2009(E))
Type: cell-based
Conditions: ratio to MIC against M. tuberculosis
Property: IC50-L929/MIC Mtb (cytotoxicity / discriminatory index)
Answer with the value's number alone.

Cc1c(-c2cc(C(=O)O)c3cc(Cl)ccc3n2)nnn1-c1ccc(Br)cc1; 10
Cc1c(-c2cc(C(=O)O)c3cc(Br)ccc3n2)nnn1-c1ccc(Cl)cc1; 13
Cc1c(-c2cc(C(=O)O)c3cc(Cl)ccc3n2)nnn1-c1cccc(Cl)c1; 13

Please turn your attention to the following entry.
Task: Please give the documented IC50-L929/MIC Mtb (cytotoxicity / discriminatory index) of Cc1c(-c2cc(C(=O)O)c3cc(Br)ccc3n2)nnn1-c1ccc(Br)cc1
Output: 10

====

Documented melting point across a set of compounds

Cc1c(-c2cc(C(=O)O)c3cc(Cl)ccc3n2)nnn1-c1ccc(Br)cc1 [Compound 5o]; > 300 °C
Cc1c(-c2cc(C(=O)O)c3ccccc3n2)nnn1-c1ccccc1 [Compound 5a]; 278 to 280 °C
Cc1c(-c2cc(C(=O)O)c3cc(Cl)ccc3n2)nnn1-c1cccc(Cl)c1 [Compound 5k]; > 300 °C

Task: Please give the documented melting point of Cc1c(-c2cc(C(=O)O)c3ccccc3n2)nnn1-c1ccc(Cl)cc1 [Compound 5f]
Output: 246 to 248 °C

Task: Please give the documented melting point of Cc1c(-c2cc(C(=O)O)c3ccccc3n2)nnn1-c1cccc(Cl)c1 [Compound 5c]
Output: 276 to 277 °C
